# Target Under Test: Sodium/glucose cotransporter 2 (Homo sapiens, UniProt P31639)
# Sequence (P31639 whole entry): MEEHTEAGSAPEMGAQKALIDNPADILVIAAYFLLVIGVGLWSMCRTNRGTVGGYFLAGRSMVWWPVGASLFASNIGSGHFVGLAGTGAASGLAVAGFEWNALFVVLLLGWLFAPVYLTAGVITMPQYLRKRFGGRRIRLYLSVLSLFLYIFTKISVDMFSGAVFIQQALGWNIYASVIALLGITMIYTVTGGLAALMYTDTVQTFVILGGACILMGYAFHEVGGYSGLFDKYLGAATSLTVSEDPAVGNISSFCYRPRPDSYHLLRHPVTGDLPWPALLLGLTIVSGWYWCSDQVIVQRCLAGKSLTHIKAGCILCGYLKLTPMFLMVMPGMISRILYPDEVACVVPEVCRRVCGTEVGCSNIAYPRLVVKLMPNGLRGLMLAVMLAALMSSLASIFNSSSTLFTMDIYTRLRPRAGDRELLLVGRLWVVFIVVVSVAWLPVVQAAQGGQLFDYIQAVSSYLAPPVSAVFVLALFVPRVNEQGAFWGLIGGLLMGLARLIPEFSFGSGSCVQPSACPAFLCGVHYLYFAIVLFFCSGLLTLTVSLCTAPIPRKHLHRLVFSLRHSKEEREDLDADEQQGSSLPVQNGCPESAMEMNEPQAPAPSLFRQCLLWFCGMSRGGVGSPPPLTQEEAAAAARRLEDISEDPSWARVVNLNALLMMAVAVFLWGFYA
# Assay Name: Inhibition of human SGLT2 expressed in CHO cells assessed as [14C]-alpha-methyl-D-glucopyranoside uptake after 2 hrs by liquid scintillation counter
pIC50: −log10 of the molar value.

| Smiles Entry | Target Under Test | pIC50 |
| --- | --- | --- |
| C#CCOc1cc(Cl)c(Cc2ncc(-c3ccco3)s2)cc1[C@@H]1O[C@H](CO)[C@@H](O)[C@H](O)[C@H]1O | Sodium/glucose cotransporter 2 (Homo sapiens, UniProt P31639) | 8.65 |
| COc1cc(Cl)c(Cc2ncc(-c3cccs3)s2)cc1[C@@H]1O[C@H](CO)[C@@H](O)[C@H](O)[C@H]1O | Sodium/glucose cotransporter 2 (Homo sapiens, UniProt P31639) | 8.80 |
| C=CCOCc1cc(Cl)c(Cc2ncc(-c3ccsc3)s2)cc1[C@@H]1O[C@H](CO)[C@@H](O)[C@H](O)[C@H]1O | Sodium/glucose cotransporter 2 (Homo sapiens, UniProt P31639) | 8.00 |
| CCOc1cc(Cl)c(Cc2ncc(-c3ccsc3)s2)cc1[C@@H]1O[C@H](CO)[C@@H](O)[C@H](O)[C@H]1O | Sodium/glucose cotransporter 2 (Homo sapiens, UniProt P31639) | 8.93 |
| C=CCOCc1cc(Cl)c(Cc2ncc(-c3ccco3)s2)cc1[C@@H]1O[C@H](CO)[C@@H](O)[C@H](O)[C@H]1O | Sodium/glucose cotransporter 2 (Homo sapiens, UniProt P31639) | 7.76 |
| C=CCOCc1cc(Cl)c(Cc2ncc(-c3cccs3)s2)cc1[C@@H]1O[C@H](CO)[C@@H](O)[C@H](O)[C@H]1O | Sodium/glucose cotransporter 2 (Homo sapiens, UniProt P31639) | 7.79 |
| C=CCOCc1cc(Cl)c(Cc2ncc(-c3ccoc3)s2)cc1[C@@H]1O[C@H](CO)[C@@H](O)[C@H](O)[C@H]1O | Sodium/glucose cotransporter 2 (Homo sapiens, UniProt P31639) | 7.41 |
| OC[C@H]1O[C@@H](c2cc(Cc3ncc(-c4ccco4)s3)c(Cl)cc2Cl)[C@H](O)[C@@H](O)[C@@H]1O | Sodium/glucose cotransporter 2 (Homo sapiens, UniProt P31639) | 8.65 |
| COc1cc(Cl)c(Cc2ncc(-c3ccco3)s2)cc1[C@@H]1O[C@H](CO)[C@@H](O)[C@H](O)[C@H]1O | Sodium/glucose cotransporter 2 (Homo sapiens, UniProt P31639) | 8.67 |
| C=CCCOc1cc(Cl)c(Cc2ncc(-c3ccco3)s2)cc1[C@@H]1O[C@H](CO)[C@@H](O)[C@H](O)[C@H]1O | Sodium/glucose cotransporter 2 (Homo sapiens, UniProt P31639) | 7.48 |

###

Recorded IC50 by entry
# Target Under Test: Sodium/glucose cotransporter 2 (Homo sapiens, UniProt P31639)
# Assay Name: Inhibition of human SGLT2 expressed in CHO cells assessed as [14C]-alpha-methyl-D-glucopyranoside uptake after 2 hrs by liquid scintillation counter
Assay Metric: IC50

| Smiles Entry | Result |
| --- | --- |
| OC[C@H]1O[C@@H](c2cc(Cc3ncc(-c4ccc(F)cc4)s3)c(Cl)cc2F)[C@H](O)[C@@H](O)[C@@H]1O | 27.4 nM |
| OCc1cc(Cl)c(Cc2ncc(-c3cccs3)s2)cc1[C@@H]1O[C@H](CO)[C@@H](O)[C@H](O)[C@H]1O | 5.88 nM |
| OCc1cc(Cl)c(Cc2ncc(-c3ccoc3)s2)cc1[C@@H]1O[C@H](CO)[C@@H](O)[C@H](O)[C@H]1O | 20.5 nM |
| CN(C)CCOc1cc(Cl)c(Cc2ncc(-c3ccco3)s2)cc1[C@@H]1O[C@H](CO)[C@@H](O)[C@H](O)[C@H]1O | 713 nM |
| CCCOc1cc(Cl)c(Cc2ncc(-c3ccco3)s2)cc1[C@@H]1O[C@H](CO)[C@@H](O)[C@H](O)[C@H]1O | 21.6 nM |
| OCc1cc(Cl)c(Cc2ncc(-c3ccsc3)s2)cc1[C@@H]1O[C@H](CO)[C@@H](O)[C@H](O)[C@H]1O | 2.23 nM |
| OCc1cc(Cl)c(Cc2ncc(-c3ccco3)s2)cc1[C@@H]1O[C@H](CO)[C@@H](O)[C@H](O)[C@H]1O | 5.81 nM |
